Attribution: the supplement of paper PMC11208160

# Assay Procedure: recombinant UMI read abundance after kanamycin selection (control-corrected) (log10(CPM+1)); higher = more efficient recombination; extreme values may be limits of the assay; sequences stand for … in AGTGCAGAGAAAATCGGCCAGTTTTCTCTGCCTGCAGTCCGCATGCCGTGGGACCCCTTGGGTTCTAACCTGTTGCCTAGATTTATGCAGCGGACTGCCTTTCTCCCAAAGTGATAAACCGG…AGGTTGGTTTCACT; site = the 11-nt donor;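 further: IS621 bridge recombinase in Escherichia coli cells against a fixed T5 target plasmid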
Please use 1 (yes) whenever recombinant UMI read abundance (log10) is not below 0.02, and 0 (no) whenever it is.

[[record]]
chain = "CGTTTGGCATGGACCGGTTTTCCCGGTAATCCGTATTTGCA (site CGTTTGGCTGG)"
class_label = "0 (no)"

[[record]]
chain = "TGTCAGCCATGGACCGGTTTTCCCGGTAATCCGTATTTGGC (site TGTCAGCCTGC)"
class_label = "0 (no)"

[[record]]
chain = "CACGCCTCATGGACCGGTTTTCCCGGTAATCCGTATTTGCC (site CACTCCTCTGG)"
class_label = "1 (yes)"

[[record]]
chain = "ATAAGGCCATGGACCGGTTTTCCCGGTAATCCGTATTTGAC (site ATCAGGCCTGT)"
class_label = "0 (no)"

[[record]]
chain = "ACAGCATCATGGACCGGTTTTCCCGGTAATCCGTATTTGTA (site ACAGTATCTTG)"
class_label = "0 (no)"

[[record]]
chain = "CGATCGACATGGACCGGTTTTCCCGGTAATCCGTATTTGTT (site CGCTCGACTAA)"
class_label = "0 (no)"

[[record]]
chain = "AGCCTTTCATGGACCGGTTTTCCCGGTAATCCGTATTTGGC (site AGCCTTTCTGG)"
class_label = "0 (no)"

[[record]]
chain = "ACATCGACATGGACCGGTTTTCCCGGTAATCCGTATTTGTG (site ACATCCACTCA)"
class_label = "0 (no)"

[[record]]
chain = "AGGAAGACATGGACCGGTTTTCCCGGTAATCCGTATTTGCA (site ATCAAGACTTG)"
class_label = "1 (yes)"

[[record]]
chain = "CGGGTTGCATGGACCGGTTTTCCCGGTAATCCGTATTTGAG (site CGGGTTGCTCT)"
class_label = "1 (yes)"

[[record]]
chain = "ACACCTACATGGACCGGTTTTCCCGGTAATCCGTATTTGTG (site ACACCTACTCA)"
class_label = "1 (yes)"

[[record]]
chain = "TGACCTCCATGGACCGGTTTTCCCGGTAATCCGTATTTGAA (site TGACCTCCTTT)"
class_label = "0 (no)"

[[record]]
chain = "CGGATTCCATGGACCGGTTTTCCCGGTAATCCGTATTTGTT (site CGGAGTCCTAA)"
class_label = "0 (no)"

[[record]]
chain = "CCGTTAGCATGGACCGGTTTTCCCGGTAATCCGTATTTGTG (site CGGTTAGCTCA)"
class_label = "0 (no)"

[[record]]
chain = "GTTTGCCCATGGACCGGTTTTCCCGGTAATCCGTATTTGAT (site GATTGCCCTAT)"
class_label = "0 (no)"

[[record]]
chain = "GGGGCAACATGGACCGGTTTTCCCGGTAATCCGTATTTGCA (site GGGGCAACTTG)"
class_label = "1 (yes)"

[[record]]
chain = "ATCCGAGCATGGACCGGTTTTCCCGGTAATCCGTATTTGAG (site ATCCAAGCTCT)"
class_label = "1 (yes)"

[[record]]
chain = "GTTCCAGCATGGACCGGTTTTCCCGGTAATCCGTATTTGCA (site GTTCGAGCTTG)"
class_label = "0 (no)"

[[record]]
chain = "CGAGCGACATGGACCGGTTTTCCCGGTAATCCGTATTTGTT (site CGACCGACTAA)"
class_label = "0 (no)"

[[record]]
chain = "ACGGCTACATGGACCGGTTTTCCCGGTAATCCGTATTTGAC (site ACGGCTACTGT)"
class_label = "1 (yes)"

[[record]]
chain = "TGTTCCCCATGGACCGGTTTTCCCGGTAATCCGTATTTGTC (site TGTTCCCCTAA)"
class_label = "0 (no)"

[[record]]
chain = "ATGTAGTCATGGACCGGTTTTCCCGGTAATCCGTATTTGGC (site ATGTAGCCTGC)"
class_label = "0 (no)"

[[record]]
chain = "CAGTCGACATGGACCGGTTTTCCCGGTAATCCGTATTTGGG (site TAGTCGACTCC)"
class_label = "0 (no)"

[[record]]
chain = "AGGAAGACATGGACCGGTTTTCCCGGTAATCCGTATTTGAA (site AGGAAGACTTG)"
class_label = "1 (yes)"

[[record]]
chain = "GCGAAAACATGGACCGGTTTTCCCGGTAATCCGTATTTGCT (site GCAAAAACTAG)"
class_label = "0 (no)"

[[record]]
chain = "CGGGCCTCATGGACCGGTTTTCCCGGTAATCCGTATTTGTT (site CGGGCCTCTAA)"
class_label = "1 (yes)"

[[record]]
chain = "AGGACTACATGGACCGGTTTTCCCGGTAATCCGTATTTGAT (site AGGACTACTAT)"
class_label = "1 (yes)"

[[record]]
chain = "TTATGTGCATGGACCGGTTTTCCCGGTAATCCGTATTTGCT (site TTATGTGCTAG)"
class_label = "1 (yes)"

[[record]]
chain = "AAAGCCACATGGACCGGTTTTCCCGGTAATCCGTATTTGTA (site AAAGCCACTTA)"
class_label = "1 (yes)"

[[record]]
chain = "CCATCTTCATGGACCGGTTTTCCCGGTAATCCGTATTTGCT (site CGATCATCTAG)"
class_label = "0 (no)"

[[record]]
chain = "CGATCGCCATGGACCGGTTTTCCCGGTAATCCGTATTTGCT (site CGATCGCCTAG)"
class_label = "1 (yes)"

[[record]]
chain = "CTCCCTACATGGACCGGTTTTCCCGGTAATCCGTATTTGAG (site CTACCTACTCT)"
class_label = "0 (no)"

[[record]]
chain = "GGCAATGCATGGACCGGTTTTCCCGGTAATCCGTATTTGAA (site GGCAATTCTTT)"
class_label = "1 (yes)"

[[record]]
chain = "GGATAGGCATGGACCGGTTTTCCCGGTAATCCGTATTTGCC (site GGATAGCCTGG)"
class_label = "1 (yes)"

[[record]]
chain = "AGTAACACATGGACCGGTTTTCCCGGTAATCCGTATTTGCA (site AGGAAGACTTG)"
class_label = "0 (no)"

[[record]]
chain = "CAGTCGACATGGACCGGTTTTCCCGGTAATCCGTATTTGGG (site CAGTAGACTCC)"
class_label = "1 (yes)"

